B1: FCHSD1 (parent)
chain: LQEPGVFSPTPPQQFQPAGTDQVC

Variants of: B1
Experiment: protein stability index of a GFP-peptide fusion (GPS, HEK-293T) (PSI 1-6); higher = more stable;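 further: lentivirally expressed fusions sorted by FACS into six bins by GFP to DsRed ratio, PSI derived from sequencing read proportions per bin multiplied by bin number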
Conditions: c terminus: a fixed tail appended
Property Measured: protein stability index

   residue_change  measured
0            Q13F       3.8
1             P9M      4.38
2            P12Q      4.45
3             P9G      4.38
4            Q13D      4.55
5            P12W       3.5
6            T10H      4.17
